- Tested on: OVCAR-3
- assay.notes: NCI tumour cell line growth inhibition, 48 h
Activity calls are given as the source filed them. Cut-off read from the data, not from the text of the source: active = GI50 up to about 1.1 µM and inactive = higher.
endpoint.label: GI50

# molecule, data.value
data = [
    ("CNS(=O)(=O)NNS(=O)(=O)c1ccc(OC)cc1", "> 100 µM (inactive)"),
]

Noted GI50 for "Cc1cc(CNC(=O)OCc2ccccc2)c(C)c2c1Oc1ccccc1O2" , tested on OVCAR-3: 57.8 µM (inactive)

Value sought: GI50, system OVCAR-3, item "O=C1C(=O)N(c2ccc(Cl)cc2)C(=O)C(=O)C1c1nc2ccccc2s1" . Result: > 100 µM (inactive)

The molecule CCOC(=O)C1=C(C)N(NC(N)=O)C2(O)CCCC(=O)C12C (centres undefined) , when measured on OVCAR-3, yielded GI50 of > 100 µM (inactive)

GI50 of "Cc1cc2nc3c(C#N)c(-c4ccccc4)cc(Nc4cccc(C(F)(F)F)c4)n3c2cc1C" , assay on OVCAR-3, is 2.21 µM (inactive)

Record for "COc1cc2c(cc1C[C@H]1[C@@H]3C[C@H]4c5c(c6ccccc6n5C)C[C@@H]([C@@H]3CO[C@]1(C)OC(C)=O)N4C)c1c(n2C)C2C[C@H]3C(C(C)=O)=COC[C@H]3[C@H](C1)N2C" under target or system OVCAR-3: GI50 reported as 2.66 µM (inactive)

Data credit: ChEMBL document CHEMBL1201862
